molecular target: recombinant human tau 4R2N (Homo sapiens (Human), UniProt P10636); test: Confirmatory Assay (CONFA), SDS-PAGE quantification of tau monomer and oligomers; details: tau target 300 nM, Tris-HCl pH 7.4, room temperature 3 hours, compound 0.098 uM-50 uM
Sequence (P10636 other isoform, or with tags, fused parts or gaps): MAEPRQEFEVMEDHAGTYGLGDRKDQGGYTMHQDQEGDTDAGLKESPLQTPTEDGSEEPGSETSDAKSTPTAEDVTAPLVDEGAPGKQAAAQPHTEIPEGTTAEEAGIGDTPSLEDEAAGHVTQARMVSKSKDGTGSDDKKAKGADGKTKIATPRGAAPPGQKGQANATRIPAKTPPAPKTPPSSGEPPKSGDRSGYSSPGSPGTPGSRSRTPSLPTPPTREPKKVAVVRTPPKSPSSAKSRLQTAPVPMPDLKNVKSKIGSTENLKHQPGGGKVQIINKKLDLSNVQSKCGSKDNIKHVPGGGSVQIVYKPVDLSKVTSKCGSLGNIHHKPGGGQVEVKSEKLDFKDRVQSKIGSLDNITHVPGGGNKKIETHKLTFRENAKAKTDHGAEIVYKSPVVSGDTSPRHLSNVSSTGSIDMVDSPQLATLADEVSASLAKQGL
pIC50: −log10 of the molar value. Where a name gives a salt, the structure may show the parent alone.
Metric: pIC50

# example entries with known answers
Per the records, this compound ( CC(=O)CCc1oc2cc(-c3cccnc3)ccc2c1-c1ccc(F)cc1 [Ex. 31, HCl Salt] ) has pIC50 equal to 5.03

Per the records, this compound ( COc1cc(-c2ccc3c(-c4ccc(C)o4)c(CCC(C)=O)oc3c2)ccn1 ) has pIC50 equal to 5.14

Per the records, this compound ( CC(=O)CCc1oc2cc(-c3cccnc3)ccc2c1-c1ccc(C)o1 ) has pIC50 equal to 4.93

Per the records, this compound ( CC(=O)CCc1oc2ccc(-c3cccnc3)cc2c1-c1ccc(C)o1 ) has pIC50 equal to 4.43

Per the records, this compound ( CC(=O)CCc1oc2ccc(-c3cccs3)cc2c1-c1ccc(C)o1 ) has pIC50 equal to 5.25

Per the records, this compound ( CC(=O)CCc1oc2ccc(-c3cccc(O)c3)cc2c1-c1ccc(C)o1 ) has pIC50 equal to 4.62

a = COc1cccc(-c2ccc3oc(CCC(C)=O)c(-c4ccc(C)o4)c3c2)c1
b = COc1ccc(-c2ccc3c(-c4ccc(C)o4)c(CCC(C)=O)oc3c2)cn1
c = CC(=O)CCc1oc2ccc(-c3cncnc3)cc2c1-c1ccc(C)cc1 [Ex. 29, di HCl Salt]
Ordering criterion: pIC50; begin with the maximum. Record the ranking as a list of labels in the requested order.
a, c, b
